TGT: Androgen receptor (Homo sapiens) (UniProt P10275)
Sequence (P10275 whole entry, looked up): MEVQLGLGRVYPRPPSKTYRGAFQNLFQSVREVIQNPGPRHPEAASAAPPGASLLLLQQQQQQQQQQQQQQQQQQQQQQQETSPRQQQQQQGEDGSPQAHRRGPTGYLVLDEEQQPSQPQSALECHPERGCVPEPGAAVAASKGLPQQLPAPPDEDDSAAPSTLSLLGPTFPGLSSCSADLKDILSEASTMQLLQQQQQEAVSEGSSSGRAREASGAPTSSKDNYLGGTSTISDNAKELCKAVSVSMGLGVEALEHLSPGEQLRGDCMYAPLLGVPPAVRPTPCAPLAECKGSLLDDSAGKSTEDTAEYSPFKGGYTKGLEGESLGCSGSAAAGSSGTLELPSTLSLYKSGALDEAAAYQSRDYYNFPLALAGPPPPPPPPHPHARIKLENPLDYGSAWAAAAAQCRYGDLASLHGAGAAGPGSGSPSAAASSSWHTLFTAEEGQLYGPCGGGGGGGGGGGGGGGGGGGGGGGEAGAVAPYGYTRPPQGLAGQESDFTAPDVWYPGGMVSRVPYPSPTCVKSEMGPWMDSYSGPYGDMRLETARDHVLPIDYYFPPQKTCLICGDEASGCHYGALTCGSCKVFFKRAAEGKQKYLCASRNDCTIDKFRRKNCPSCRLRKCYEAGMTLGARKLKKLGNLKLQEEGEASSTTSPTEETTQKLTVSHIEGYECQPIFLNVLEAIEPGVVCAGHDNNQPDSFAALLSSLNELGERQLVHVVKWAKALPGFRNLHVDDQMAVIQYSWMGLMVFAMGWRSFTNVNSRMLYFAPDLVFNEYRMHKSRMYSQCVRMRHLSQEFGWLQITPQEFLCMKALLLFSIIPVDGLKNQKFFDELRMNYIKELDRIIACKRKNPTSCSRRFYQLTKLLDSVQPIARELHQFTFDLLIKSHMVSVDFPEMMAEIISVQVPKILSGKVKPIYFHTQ
EXPERIMENT DESCRIPTION: qHTS assay to identify small molecule agonists of the androgen receptor (AR) signaling pathway in the presence of an antagonist (AID 1259381); further: nearly all actives have a fitted effect of over 15% in size; further: potency means the concentration at half of the fitted maximal effect
STUDY CONDITIONS: MDA-kb2 MMTV-luciferase, AR agonist + nilutamide, 16 h; series mostly up to 92.4 µM
Activity calls are given as the source filed them. The call rests on the fitted dose curve.
MEASURED PARAMETER: Potency

O=C(O)CC[N+](=O)[O-]	inactive
CCCCC(CC)COC(=O)c1ccc(C(=O)OCC(CC)CCCC)c(C(=O)OCC(CC)CCCC)c1 (stereo unspecified)	inactive
Nc1ccc(Cl)cc1N	4.86 µM (active)
CCN(CC)C(=O)/C(Cl)=C(\C)OP(=O)(OC)OC	inactive
Nc1c(Cl)cc([N+](=O)[O-])cc1Cl	inactive

Here is the next item to consider.
q: So what does the record say about Potency for CCCCNC(=O)n1c(NC(=O)OC)nc2ccccc21 ?
a: inactive

* * *

TGT: Thyrotropin-releasing hormone receptor (Homo sapiens) (UniProt P34981)
Sequence (P34981 whole entry, looked up): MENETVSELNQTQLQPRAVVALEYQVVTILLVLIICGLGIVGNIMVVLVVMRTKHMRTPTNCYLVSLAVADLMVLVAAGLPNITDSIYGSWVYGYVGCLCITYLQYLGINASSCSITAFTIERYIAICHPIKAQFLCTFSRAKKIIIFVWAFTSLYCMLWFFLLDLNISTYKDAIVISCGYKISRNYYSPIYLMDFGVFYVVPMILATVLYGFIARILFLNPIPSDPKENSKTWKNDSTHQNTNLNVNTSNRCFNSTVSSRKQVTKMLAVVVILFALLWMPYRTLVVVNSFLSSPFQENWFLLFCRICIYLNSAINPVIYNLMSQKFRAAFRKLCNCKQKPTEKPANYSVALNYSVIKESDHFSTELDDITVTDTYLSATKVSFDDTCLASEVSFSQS
EXPERIMENT DESCRIPTION: qHTS assay to identify small molecule antagonists of the thyrotropin-releasing hormone receptor (TRHR) signaling pathway (AID 1346877)
STUDY CONDITIONS: TRHR-HEK293, TRH-induced calcium fluorescence, antagonist mode; series mostly up to 51.3 µM
The source made the active and inactive calls. The call rests on the fitted dose curve; in most records, active means well fitted inhibition curve with a large enough effect in the repeat runs (not every such curve was filed as active); inconclusive means weak or mixed curves; inactive means flat fitted curve, though single readings scatter.
MEASURED PARAMETER: outcome

Some solved cases for reference:
NCc1cccnc1	inactive
CCOCN(C(=O)CCl)c1c(C)cccc1CC	inactive
N[C@@H](Cc1ccc(N(CCCl)CCCl)cc1)C(=O)O	inactive
Nc1c(Cl)cc([N+](=O)[O-])cc1Cl	inactive
CCOc1cc(Oc2ccc(C(F)(F)F)cc2Cl)ccc1[N+](=O)[O-]	inactive
COP(=O)(OC)OC	inactive
O=[N+]([O-])c1cccc2ccccc12	inactive

q: So what does the record say about outcome for Nc1ccncc1 ?
a: inactive

* * *

EXPERIMENT DESCRIPTION: qHTS assay to identify small molecule antagonists of the estrogen related receptor signaling pathway with the pleiotropic PPARgamma coactivator (PGC) from Tox21 10K library - cell viability counter screen (AID 1224840); further: nearly all actives have a fitted effect of over 40% in size
STUDY CONDITIONS: PGC/ERR reporter cells viability, CellTiter-Fluor, 17.5 h; series mostly up to 92.4 µM
Results filed as inconclusive are left out. The source made the active and inactive calls. Calls come from the whole dose curve; as a rule, active = well fitted cell-killing curve with a large enough effect in the repeat runs (not every such curve was filed as active); inconclusive = weak or mixed curves, or effect the other way; inactive = no such curve, though single readings can be large or run the other way.
MEASURED PARAMETER: outcome

Some solved cases for reference:
Oc1ccc(-c2ccccc2)cc1	inactive
CCCCCCCCC(=O)NCc1ccc(O)c(OC)c1	inactive
N#CC(Br)Br	inactive
O=P(O)(O)CCCl	inactive
O=Cc1ccco1	inactive
CCCCN(CC)c1c([N+](=O)[O-])cc(C(F)(F)F)cc1[N+](=O)[O-]	inactive
CCN(CC)N=O	inactive

q: So what does the record say about outcome for CC(C)(C)c1ccccc1O ?
a: inactive

* * *

TGT: Nuclear receptor subfamily 1 group I member 2 (Homo sapiens) (UniProt O75469)
Sequence (O75469 whole entry, looked up): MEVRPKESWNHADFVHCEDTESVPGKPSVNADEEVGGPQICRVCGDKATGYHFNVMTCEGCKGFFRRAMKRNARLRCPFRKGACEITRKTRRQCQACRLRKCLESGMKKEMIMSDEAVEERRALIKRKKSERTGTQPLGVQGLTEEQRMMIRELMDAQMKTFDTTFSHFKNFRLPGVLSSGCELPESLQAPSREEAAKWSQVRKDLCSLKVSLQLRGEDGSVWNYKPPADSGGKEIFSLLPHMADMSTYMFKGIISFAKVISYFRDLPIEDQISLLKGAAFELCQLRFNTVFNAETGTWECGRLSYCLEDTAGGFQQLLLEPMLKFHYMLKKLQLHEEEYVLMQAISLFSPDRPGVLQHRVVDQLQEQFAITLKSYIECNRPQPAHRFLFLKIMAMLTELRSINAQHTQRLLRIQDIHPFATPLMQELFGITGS
EXPERIMENT DESCRIPTION: Human pregnane X receptor (PXR) small molecule agonists, qHTS assay (AID 1346982); further: nearly all actives have a fitted effect of over 35% in size; further: potency means the concentration at half of the fitted maximal effect
STUDY CONDITIONS: PXR-Luc HepG2, CYP3A4 luciferase reporter, 24 h; series mostly up to 92.4 µM
Records with an inconclusive call do not appear. Active and inactive are the calls of the source. Calls follow the shape of the dose curve; as a rule, active = well fitted activation curve with a large enough effect in the repeat runs; inconclusive = weak or mixed curves; inactive = no such curve, though single readings can be large or run the other way.
MEASURED PARAMETER: Potency

COc1ccc(C=O)cc1	inactive
CCCCC(CC)COC(=O)Cl (stereo not drawn)	inactive
CCN(CC)N=O	inactive
Nc1cccnc1	inactive

q: So what does the record say about Potency for CCN(CC)C(=O)SCc1ccc(Cl)cc1 ?
a: 56.1 µM (active)

q: So what does the record say about Potency for Nc1c(Cl)cc([N+](=O)[O-])cc1Cl ?
a: 27.5 µM (active)

q: So what does the record say about Potency for CNC(=O)Oc1cccc2c1OC(C)(C)O2 ?
a: inactive

q: So what does the record say about Potency for CCC(C)c1ccc(O)cc1 (stereo not drawn) ?
a: inactive

* * *

TGT: Peroxisome proliferator-activated receptor delta (Homo sapiens)
EXPERIMENT DESCRIPTION: qHTS assay to identify small molecule agonists of the peroxisome proliferator-activated receptor delta (PPARd) signaling pathway (AID 743212);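 further: HEK293H cells with PPARd UAS beta-lactamase reporter GeneBLAzer system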
STUDY CONDITIONS: HEK293H PPARd-UAS-bla, beta-lactamase FRET ratio, 17 h; series mostly up to 62.6 µM
Inconclusive results are not listed. Calls of active or inactive are those of the source. The call rests on the fitted dose curve.
MEASURED PARAMETER: outcome

Nc1ccncc1	inactive
O=C(NC(=O)c1c(F)cccc1F)Nc1ccc(Cl)cc1	inactive
N#CC(Br)Br	inactive

* * *

TGT: Peroxisome proliferator-activated receptor gamma (Homo sapiens) (UniProt P37231)
Sequence (P37231 whole entry, looked up): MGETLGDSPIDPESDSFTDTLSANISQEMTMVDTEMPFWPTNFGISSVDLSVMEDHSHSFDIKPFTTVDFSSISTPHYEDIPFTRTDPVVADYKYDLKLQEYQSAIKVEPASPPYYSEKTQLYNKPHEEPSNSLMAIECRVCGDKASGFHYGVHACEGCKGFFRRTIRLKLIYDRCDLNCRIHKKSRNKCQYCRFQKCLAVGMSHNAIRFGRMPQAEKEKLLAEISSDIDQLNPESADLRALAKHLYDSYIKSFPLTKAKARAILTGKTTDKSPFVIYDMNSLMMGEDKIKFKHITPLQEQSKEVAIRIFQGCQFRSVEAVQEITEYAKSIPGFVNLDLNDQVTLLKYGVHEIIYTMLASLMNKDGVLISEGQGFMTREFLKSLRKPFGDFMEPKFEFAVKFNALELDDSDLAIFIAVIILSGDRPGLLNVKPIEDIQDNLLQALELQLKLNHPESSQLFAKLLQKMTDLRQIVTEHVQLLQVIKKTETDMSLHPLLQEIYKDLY
EXPERIMENT DESCRIPTION: qHTS assay to identify small molecule antagonists of the peroxisome proliferator-activated receptor gamma (PPARg) signaling pathway (AID 743191); further: nearly all actives have a fitted effect of over 30% in size
STUDY CONDITIONS: HEK293H PPARg-UAS-bla, beta-lactamase ratio, antagonist, 17 h; series mostly up to 62.6 µM
Results filed as inconclusive are left out. The source made the active and inactive calls. The call rests on the fitted dose curve.
Choose one outcome from this list and give only that: active, inactive

q: Assay outcome for O=P(O)(O)CCCl : what was it?
a: inactive

q: Assay outcome for CCOc1cc(Oc2ccc(C(F)(F)F)cc2Cl)ccc1[N+](=O)[O-] : what was it?
a: inactive

q: Assay outcome for COC(=O)c1sccc1S(=O)(=O)NC(=O)Nc1nc(C)nc(OC)n1 : what was it?
a: inactive

q: Assay outcome for OCC(O)CO : what was it?
a: inactive

q: Assay outcome for NC(=S)Nc1ccccc1 : what was it?
a: inactive

q: Assay outcome for Cc1cc(Cl)ccc1OCCCC(=O)O : what was it?
a: inactive

q: Assay outcome for CCCCCCCCOC(=O)c1ccccc1C(=O)OCCCCCCCC : what was it?
a: inactive

q: Assay outcome for O=[N+]([O-])c1cccc2ccccc12 : what was it?
a: inactive

q: Assay outcome for Nn1cnnc1 : what was it?
a: inactive

q: Assay outcome for C=C(C)[C@H]1Cc2c(ccc3c2O[C@@H]2COc4cc(OC)c(OC)cc4[C@@H]2C3=O)O1 : what was it?
a: active

q: Assay outcome for CCCCCCOC(=O)c1ccccc1C(=O)OCCCCCC : what was it?
a: inactive

q: Assay outcome for N#CC(Br)Br : what was it?
a: inactive

q: Assay outcome for C=CCN(CC=C)C(=O)C(Cl)Cl : what was it?
a: inactive

q: Assay outcome for Oc1cc(Cl)ccc1Cl : what was it?
a: inactive

q: Assay outcome for Nc1c(Cl)cc([N+](=O)[O-])cc1Cl : what was it?
a: inactive

q: Assay outcome for Cc1cccc(N)c1N : what was it?
a: inactive

q: Assay outcome for CNC(=O)N(C)c1nnc(C(C)(C)C)s1 : what was it?
a: inactive

q: Assay outcome for CCCCC(CC)COC(=O)Cl (stereo not given) : what was it?
a: inactive

q: Assay outcome for NCc1cccnc1 : what was it?
a: inactive

q: Assay outcome for O=C(NC(=O)c1c(F)cccc1F)Nc1ccc(Cl)cc1 : what was it?
a: inactive

q: Assay outcome for CCCCNC(=O)n1c(NC(=O)OC)nc2ccccc21 : what was it?
a: inactive

q: Assay outcome for O=[N+]([O-])c1ccc(O)c([N+](=O)[O-])c1 : what was it?
a: inactive

q: Assay outcome for CCC(C)c1cc([N+](=O)[O-])cc([N+](=O)[O-])c1O (stereo not given) : what was it?
a: inactive

q: Assay outcome for CCCCCCCCC(=O)NCc1ccc(O)c(OC)c1 : what was it?
a: inactive

q: Assay outcome for CCC(C)(C)c1ccc(O)cc1 : what was it?
a: inactive

q: Assay outcome for NNC(=S)NN : what was it?
a: inactive

q: Assay outcome for COc1ccc(C(CN(C)C)C2(O)CCCCC2)cc1 (stereo not given) : what was it?
a: inactive

q: Assay outcome for Clc1nc(Cl)nc(Cl)n1 : what was it?
a: inactive

q: Assay outcome for CCN(N=O)C(N)=O : what was it?
a: inactive

q: Assay outcome for CCOP(=S)(OCC)O/N=C(\C#N)c1ccccc1 : what was it?
a: inactive

* * *

EXPERIMENT DESCRIPTION: qHTS assay to identify small molecule HDAC inhibitors - cell viability counter screen (AID 1259365); further: nearly all actives have a fitted effect of over 50% in size
STUDY CONDITIONS: HCT-116 viability, CellTiter-Glo ATP luminescence, 2 h; series mostly up to 92.4 µM
Excerpt: U.S. Tox21 Program National Center for Advancing Translational Sciences [NCATS] NIH Chemical Genomics Center [NCGC] U.S. Environmental Protection Agency [EPA] National Institutes of Environmental Health Sciences [NIEHS] National Toxicology Program [NTP] U.S. Food and Drug Administration [FDA] Tox21 Assay Overview: Histone deacetylases (HDACs) are a group of epigenetic enzymes that regulate gene expression by histone deacetylation. […]
Activity calls are given as the source filed them. The call rests on the fitted dose curve; in most records, active means well fitted cell-killing curve with a large enough effect in the repeat runs; inconclusive means weak or mixed curves, or effect the other way; inactive means flat fitted curve, though single readings scatter.
MEASURED PARAMETER: outcome

CCCCN(CCCC)N=O	inactive
C[C@]12CCC(=O)C(O)=C1CC[C@@H]1[C@@H]2CC[C@]2(C)C(=O)CC[C@@H]12	inactive
C[C@]12CCC(=O)C[C@@H]1CC[C@@H]1[C@@H]2CC[C@]2(C)[C@@H](O)CC[C@@H]12	inactive
